Measured log10 MBC, listed per entry.
System: Staphylococcus aureus
Test: Bactericidal activity against methicillin-resistant Staphylococcus aureus USA300 up to 18 hrs by broth microdilution assay
Format: functional
Settings: USA300, 18 h, read-out: MBC99.9
Base-10 log of MBC, unit µg/mL.

Query block: Fill in the blank: the reported log10 MBC of C/C(=N\NC(=N)N)c1sc(-c2ccc(C#Cc3ccccc3)cc2)nc1C is ____.
Result block: 0.00

---

System: Staphylococcus aureus
Experiment: Antibacterial activity against methicillin-resistant Staphylococcus aureus NRS107 after 20 hrs by broth microdilution assay
Format: functional
Details: NRS107, 20 h
observationType: MIC (µg/mL)
Give the quantity in µg/mL, number only.

Sample answers from the record:
>  <smiles>
C/C(=N\NC(=N)N)c1sc(-c2ccc(C#CC3CC3)cc2)nc1C

>  <observationType>
MIC

>  <endpointResult>
2

$$$$
>  <smiles>
CCCCCC#Cc1ccc(-c2nc(C)c(/C(C)=N/NC(=N)N)s2)cc1

>  <observationType>
MIC

>  <endpointResult>
2

$$$$
>  <smiles>
C/C(=N\NC(=N)N)c1sc(-c2ccc(C#CC3CCCC3)cc2)nc1C

>  <observationType>
MIC

>  <endpointResult>
2

$$$$
>  <smiles>
C/C(=N\NC(=N)N)c1sc(-c2ccc(C#Cc3ccccc3)cc2)nc1C

>  <observationType>
MIC

>  <endpointResult>
2

$$$$
>  <smiles>
C/C(=N\NC1=NCCN1)c1sc(-c2ccc(C#CC3CCCC3)cc2)nc1C

>  <observationType>
MIC

>  <endpointResult>
16

$$$$

Query block: Fill in the blank: the reported MIC of CCCC#Cc1ccc(-c2nc(C)c(/C(C)=N/NC(=N)N)s2)cc1 is ____.
Result block: 1

Query block: Fill in the blank: the reported MIC of CCCCCC#Cc1ccc(-c2nc(C)c(/C(C)=N/NC3=NCCN3)s2)cc1 is ____.
Result block: 16

Query block: Fill in the blank: the reported MIC of C/C(=N\NC1=NCCN1)c1sc(-c2ccc(C#CC(C)(C)C)cc2)nc1C is ____.
Result block: 2

Query block: Fill in the blank: the reported MIC of C/C(=N\NC(=N)N)c1sc(-c2ccc(C#CCC3CCCC3)cc2)nc1C is ____.
Result block: 2

Query block: Fill in the blank: the reported MIC of C/C(=N\NC(=N)N)c1sc(-c2ccc(C#CC3CCCCC3)cc2)nc1C is ____.
Result block: 16

Query block: Fill in the blank: the reported MIC of CCCCCCC#Cc1ccc(-c2nc(C)c(/C(C)=N/NC(=N)N)s2)cc1 is ____.
Result block: 4

Query block: Fill in the blank: the reported MIC of C/C(=N\NC(=N)N)c1sc(-c2ccc(C#CC(C)(C)C)cc2)nc1C is ____.
Result block: 2

Source listed as ChEMBL document CHEMBL4196022.
